Below, each entry is listed alongside its reported growth inhibition.
- PROTOCOL: NCI Yeast Anticancer Drug Screen. Data for the cln2 rad14 strain (AID 165);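 further: 0% = growth equal to vehicle treated cultures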
- CONDITION_SUMMARY: S. cerevisiae cln2 rad14 strain, at 5.0 µM (retest, dose inferred, filed as 0.5), active compounds read high
About 79,000 compounds went through this panel and 15% of them were active in at least one assay; those are over-represented in the sample as a whole.
Form entry: value (%) — number only.

Sample records with growth inhibition:
C[AsH](C)CC[AsH](C)C.C[AsH](C)CC[AsH](C)C.C[AsH](C)CC[AsH](C)C.[Ni]
74
CCCCOOC(=O)c1ccccc1C(=O)OOCCCC
51
C/C(=N\NC(N)=O)C(CN1CCCCC1)C(c1ccccc1)c1c(O)c2ccccc2oc1=O (stereo unspecified)
0
O=C1[O][Hg][c]2c1cccc2[N+](=O)[O-]
52
O=C(O)c1ccccc1.[Zn+2]
-3
CC[CH](C)[Sn](=[O])[c]1ccccc1 (stereo unspecified)
15
CN(CCCl)c1ccc(/C=C/C2=[N+](C)c3ccccc3C2(C)C)cc1
-2
COS(=O)(=O)c1ccccc1
7

Q: Which growth inhibition value is on record for C1=CC2CCC[N-]C2N1.C1=CC2CCC[N-]C2N1.[I][Pt+2][I] (stereo unspecified) ?
A: 21
